Source: PubChem BioAssay (NCI)

# System: HCC-2998 colon
# method: NCI-60 one-dose screen, 48 h
# test-conditions: 10 µM unless noted
About 83,000 compounds went through this panel and 20% of them were active in at least one assay; those are over-represented in the sample as a whole. Active and inactive are the calls of the source. Rule for the calls: active = growth percent below 10; inactive = the rest.
Outcomes: active, inactive

>  <compound>
COc1ccccc1C(=O)NN1C(=O)/C(=C/C2=Cc3ccccc3OC2)SC1=S

>  <assigned-category>
inactive

$$$$
>  <compound>
O=C1NC(=O)c2c1c1c3cc(Br)ccc3[nH]c1c1oc3ccc(F)cc3c21

>  <assigned-category>
active

$$$$
>  <compound>
Cc1ccc2c(N)c(C(=O)Nc3ccc(-c4ccccc4)cc3)sc2n1

>  <assigned-category>
inactive

$$$$
>  <compound>
CCN1CCN(Cc2ccc(C(=O)Nc3cccc(C#Cc4cccc5[nH]nc(N)c45)c3)cc2C(F)(F)F)CC1

>  <assigned-category>
active

$$$$
>  <compound>
CN(C)CCOc1ccc(C(=O)C2[C@H](c3ccc(Cl)cc3)[C@@H](c3ccccc3)NC23C(=O)Nc2ccccc23)cc1 (stereo not given in full)

>  <assigned-category>
active

$$$$
